meta.source: patent US20240352134A1

SYSTEM_TESTED: human CCR8 (human, UniProt P51685 1-355)
Sequence (P51685 whole entry): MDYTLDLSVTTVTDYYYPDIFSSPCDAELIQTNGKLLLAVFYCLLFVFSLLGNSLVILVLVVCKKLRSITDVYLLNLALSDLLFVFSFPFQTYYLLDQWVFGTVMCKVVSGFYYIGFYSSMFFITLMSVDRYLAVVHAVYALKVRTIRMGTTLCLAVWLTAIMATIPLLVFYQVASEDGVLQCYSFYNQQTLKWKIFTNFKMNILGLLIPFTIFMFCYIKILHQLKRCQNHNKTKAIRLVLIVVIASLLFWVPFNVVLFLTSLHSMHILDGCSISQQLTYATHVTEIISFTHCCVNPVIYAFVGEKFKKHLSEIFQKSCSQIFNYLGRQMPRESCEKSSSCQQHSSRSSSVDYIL
TEST: cell-based or functional assay
PROPERTY: Tango IC50 (nM)
Give bare numbers, in nM.

Here's what some known entries look like.
3C11 (antibody, V domains shown, Mouse hybridoma monoclonal antibody) VH: EFQLQQSGPELVKPGASVKISCKTSGYSFTDYNINWVKQSNGKSLEWIGLINPNHGTTKSNQKFKGKATLTVDQSSSTAYMQLSSLTSEDSAVYYCARHDYDGAYWGQGTLVTVSA VL: DVVMTQTPLSLPVSLGDQASISCRSSQSLIHSNGNTYLHWYLQKPGQSPKLLIYKISNRFSGVPDRFSGSGSGTDFTLKISRVEAEDLGVYFCSQSTRAPWTFGGGTKLEIK = 4.08
4M13 (antibody, V domains shown, Mouse hybridoma monoclonal antibody) VH: EVQLVESGGGLVQPKGSLKLSCAASGFSFNTYAMNWVRQAPGKGLEWVARMRSKSNNYATYYADSVKDRFTISRDDSESMLYLQMNNLKTEDTAMYYCVRGKDTSGSYAMDYWGQGTSVSVSS VL: DIVMTQAAPSVPVTPGESVSISCRSSKSLLHSNGNTYLYWFLQRPGQSPHLLIYRMSNLASGVPDRFSGSGSGTAFTLRISKVETEDVGVYYCMQHLEYPFTFGSGTKLEIK = 0.47

Sure, the documented Tango IC50 for 3F11 (antibody, V domains shown, Mouse hybridoma monoclonal antibody) VH: EVQLVESGGGLVQPKGSLKLSCAASGFSFNTYAMNWVRQAPGKGLEWVARIRSKSNYYATYYADSVKDRFTISRDDSESMLYLQMNNLKTEDTAMYYCVRGRELGDYYAMDYWGQGTSVTVSS VL: DIVMTQAAPSVPVTPGESVSISCRSSKSLLHSNGNTYLYWFLQRPGQSPQLLIYRMSNLASGVPNRFSGSGSGTAFTLRISRVEAEDVGVYYCMQHLEYPFTFGSGTKLEIK is 0.27
